Each entry below carries its recorded MIC.
System: M. salivarium PG20
Experiment: Anti-mycoplasmal activity (MIC), agar-dilution method
Assay type: cell-based, Mycoplasma salivarium
Details: Metamycoplasma salivarium; agar dilution; M. salivarium PG20; read-out: MIC
experimental_endpoint: MIC (µg/mL)

>>> result("NCC1CN(c2c(F)c(N)c3c(=O)c(C(=O)O)cn(C4CC4)c3c2F)CCO1 (stereo not shown)")
0.1
>>> result("CN(C)c1ccc(O)c2c1C[C@H]1C[C@H]3[C@H](N(C)C)C(O)=C(C(N)=O)C(=O)[C@@]3(O)C(O)=C1C2=O")
0.1
>>> result("CC1CN(c2c(F)c(N)c3c(=O)c(C(=O)O)cn(C4CC4)c3c2F)CCN1 (stereo not shown)")
0.2
>>> result("CC1COc2c(N3CCN(C)CC3)c(F)cc3c(=O)c(C(=O)O)cn1c23 (stereo not shown)")
6.25

All values here come from patent US5051419A.
